# Assay name: Approximate solubility of Form A in 20 single solvents at RT
# Type: physicochemical
# Assay context: Anisole, organic solvent or mixture, thermodynamic from solid
# Experimental: Approximate solubility of Form A was determined in 20 single solvents at RT, respectively. Approximately 2 mg of Form A was added into a 3-mL glass vial. Corresponding solvents were added stepwise (50 μL-50 μL-200 μL-700 μL) into the vials until the solids were dissolved visually or a total volume of 1 mL was reached. The ranges of approximate solubility were calculated according to the mass of sample, volume of solvent and observation. […]
Attribute measured: solubility

| Molecule | Attribute measured | Recorded result |
| --- | --- | --- |
| CC(=O)N/C(N)=N/C(=N\S(=O)(=O)c1ccc(C(F)(F)F)cc1)N1C[C@H](c2ccccc2)C(c2ccc(Cl)cc2)=N1 [Form A] | solubility | > 10000 µg/mL |

----------
# Assay name: Approximate solubility of Form A in 20 single solvents at RT
# Assay type: physicochemical
# Assay context: EtOH, organic solvent or mixture, thermodynamic from solid
Attribute measured: solubility

| Compound | Attribute measured | Recorded result |
| --- | --- | --- |
| CC(=O)N/C(N)=N/C(=N\S(=O)(=O)c1ccc(C(F)(F)F)cc1)N1C[C@H](c2ccccc2)C(c2ccc(Cl)cc2)=N1 [Form A] | solubility | > 10000 µg/mL |

----------
# Assay name: Approximate solubility of Form A in 20 single solvents at RT
# Format: physicochemical
# Assay context: Water, thermodynamic from solid

| Molecule | solubility |
| --- | --- |
| CC(=O)N/C(N)=N/C(=N\S(=O)(=O)c1ccc(C(F)(F)F)cc1)N1C[C@H](c2ccccc2)C(c2ccc(Cl)cc2)=N1 [Form A] | < 3000 µg/mL |

----------
# Assay name: Approximate solubility of Form A in 20 single solvents at RT
# Type: physicochemical
# Assay context: n-heptane, organic solvent or mixture, thermodynamic from solid

| Molecule | solubility |
| --- | --- |
| CC(=O)N/C(N)=N/C(=N\S(=O)(=O)c1ccc(C(F)(F)F)cc1)N1C[C@H](c2ccccc2)C(c2ccc(Cl)cc2)=N1 [Form A] | < 3000 µg/mL |

----------
# Assay name: Approximate solubility of Form A in 20 single solvents at RT
# Format: physicochemical
# Assay context: Toluene, organic solvent or mixture, thermodynamic from solid

| Compound | solubility |
| --- | --- |
| CC(=O)N/C(N)=N/C(=N\S(=O)(=O)c1ccc(C(F)(F)F)cc1)N1C[C@H](c2ccccc2)C(c2ccc(Cl)cc2)=N1 [Form A] | 2000 to 10000 µg/mL |

----------
# Assay name: Approximate solubility of Form A in 20 single solvents at RT
# Format: physicochemical
# Assay context: MTBE, organic solvent or mixture, thermodynamic from solid
Attribute measured: solubility

| Compound | Recorded result |
| --- | --- |
| CC(=O)N/C(N)=N/C(=N\S(=O)(=O)c1ccc(C(F)(F)F)cc1)N1C[C@H](c2ccccc2)C(c2ccc(Cl)cc2)=N1 [Form A] | < 3000 µg/mL |
